Where do the numbers come from? From the domain aggregation screens of Martell et al. (2025).

# Procedure Details: soluble fraction after stress (log2 fold change); higher = more stays soluble; pooled small domains, quantitative proteomics
# Settings: stress: pH 4
Assay Readout: soluble fraction (log2)
Please reply with the number alone, leaving off any unit.

Query :: Entry under review: HMVSLSNQVFEKIEYDILSGKYKIGEIISEKRLSSELGVSRTPIREALGRLSEEGLVGDSPSGTVVLGI . Reported soluble fraction (log2)?
Result :: -0.287

Query :: Repeat for the following sequence: HMKFLYQQVYQDIKDKITSAQYQFGDLLPSEREIGEEYHVDRTTVRKAFSLLVDEGLVEKRAGKGSVVIS
Result :: -0.52

Query :: Query HMEDQLDSLKDIIYDYLENNELYYNDLQEFKKIIIENMEFIHPNLNHKLIDNNFFKLINFKLEYNF next
Result :: -0.828

Query :: Cool, now HMKIEDSNTIKLKANQAYKTHYYSEAIKLYDELLTKYEPNSEAIKLNLAHAHFKAKGFAAASKLYT
Result :: 0.22

Query :: Do the same for HMSAQPMEYSRFYSDVTQGRVAEVEIEGREINGRLSTGERFKTFSPETDNKALIGHLLDNGVVIEGKPP please
Result :: 0.0726

Query :: Cool, now HMELLSVPSRLGTFFLGGEAGHIIRLYLPGDPTPRIAEHETPVLSEARRQLLEYLAGRRTAFSFPL
Result :: -0.223

Query :: Also need HMTGLSNFEFNQIKLDLMHELTQTPLRLTDLVNRITSFENEKTITVIRFLVDEGILLLKDDTLSVAKID , thanks.
Result :: -1.47

Query :: Next entry: HMKESFAQLFSLLTPTEQKVAALISQGFSNKDIAAKMFISLSTVKTHTNHIFAKMGVANRNALVAKVNN
Result :: -0.0677

Query :: Field entry: HMSNLLKNILDVLEKEGPLKARKIALLLDSTRTTITHTTINSELYKALDLEGLTKNEQNIWSYVT
Result :: -0.389

Query :: Next entry: HMQITNEGQIKLVISEVLNENQEQKKQYLSGKEQVLGYLIGKVMQKTKGKANPKLVNDLMIKELS
Result :: 0.217

Query :: Also HMDEFHLSERERQILNLLVLGHTYKHIASDLNIAYATVNKHVSNVYAKLRVQSASEAVALAIRKGL , if possible.
Result :: -0.58

Query :: Then this sequence: HMKRSVIVTAERAEVRQKADEGSALVFEAEKNVSLEYLEAAPGGWVKVRHLDGQSGFVRGNQI
Result :: -0.901

Query :: Also, HMNTIIHPIRLAYVDSGSIKSMAEQAEIDVKILTSEANSQIFWAIGDEKQIDRLYNLISQVDIIQNK please.
Result :: -1.42

Query :: Follow-up item: HMEPELSVDMKPLDGLLLAIKKELQAAQMYTRLARASADAEQKMVFEQLANMEKGHKARLEDIYT
Result :: -0.348

Query :: Could you do the same for HMSKKTQKDEVVDLFLKTGNEPLHYKEISKKTGIIVHNVRRITGQNVVGKTDNPVFKRVSPGVYKLID , please?
Result :: -0.0395

Query :: Try HMEKLPRYILPGVPKVKSINISSALDGLVQDYSREFNISQKDIFQIALVEFFKKYGYHNAVKAVL next.
Result :: 0.0067

Query :: Likewise for HMRDANYFINPIHEWQKRYEALRASFVDRLPAQAVAQRFGYTITYIHLLRHQFKSGKIDFSEPVPEG ?
Result :: -1.91

Query :: Same lookup for HMVANDQILNQYGISDREAEIIGLLIEGLSNQQIAKQLYISPNTVKTHIKNIYAKVGVNNRLQLFSLLK , please.
Result :: -0.549

Query :: Request: HMDLDSGVAVLRTLMSQHNLQTDDFQNEIGGKSMVSMILNGTRKLSKNHIQALSGRFNLSPALFF
Result :: -0.494

Query :: Queued: HMGIVTMPGQGSKMRFDFDATGDLPSSTSWRGMFAYANNTKRAYVSTGTTMGGYNGWRQLIAMDEYGNYQT
Result :: 0.22

Query :: Try HMRKIEDVLRLHAQGMSTRRIALATGVGKTTVIEYLRRAAVAGLSWPLPEGLDEEALERRVFPPPP next.
Result :: 0.282

Query :: Same read-out for HMITNSTEIEAMIDSLIKENPEQAEQYRNGNTKVVGWFVGQMMKASKGKANPQVVGDLLAQKLVG ?
Result :: -0.821

Query :: Would you kindly repeat that for HMNDLDSLWDIWENLNERGIGDKSEEGQELRDAIREFIDTNELNVRVTRNKTNEDLLTDIEDALEVAKNS ?
Result :: -2.07

Query :: Now give it for HMNVEGEVVVPNVIGRTMKDVAVILSDLGLRMEAEGTGVAKSSQPQHGTSVKRGTVVQVRFEPLSVN too.
Result :: -0.201

Query :: Would you kindly repeat that for HMNNIIYLIANKLDVGKRLDQFITIRTEFSRQRVINLIEDGYVKLNNKIINLKKYKIKGDEKIEITIPEIR ?
Result :: -1.49

Query :: Next record, please: HMSNETKSAILNFAEKHHDFNIDDLFESLSKSMDINRSSLLWHLFKLVNSNVLIRTGRGMYAKV
Result :: -0.839

Query :: Same thing, different sequence: HMQILNVFSKHGIKPISPQIGDKFDPQLHEAMFEAPVPGTKAGDIIEVSSEGFMLYDRLLRPAHVGVSSN
Result :: -0.138

Query :: Same thing, different sequence: HMIEGSSDWKPNMILDDGGDLTKIIHEEYQDLLDDIRGLSEETTTGVLRLYEMEKENSLAVPAINVND
Result :: -0.578

Query :: Now the same for HMAYMETIERVEALAPGTKFNLKALFGTDWTQSRGTKLTLGKTFYEMVESGYVKTAKVLGKDSSNIMQYER
Result :: -0.0837

Query :: Continue with HMKVIETKYNTYVVKSGDTLYSVAKKYGISVTELKEINDLSNNTLSIGQKLLVPATTIIIDE
Result :: -0.525

Query :: What do we get for HMPQPDVIEVRQGIVTGMRPDRRTGWLRDEEDAAGEPKSFSIDVITPKGRTPGKGAVVTYTLTNGKITEVK ?
Result :: 0.143

Query :: And HMYEDGGAFLKAEREKYGLTLTDIYEHTHIPVRKLKAYEMHEEEMPDRTRALLELYFDQVAYEYES ?
Result :: -0.339

* * *

# Procedure Details: soluble fraction after stress (log2 fold change); higher = more stays soluble; pooled small domains, quantitative proteomics
# Settings: stress: pH 4
Assay Readout: soluble fraction (log2)
// return a plain number; no unit text

Query :: Give the measured soluble fraction (log2) of HMEELELTIDGEMVGRIDKQLGHHFDQFSRSQIQHWIEDGHVLVNGKQVKPKYKLLVGDHVQIIPEEPQK .
Result :: 0.223

Query :: Repeat with HMSINISFEPADHLGKDVIFIRFPYDNEWIQRVRKLKGAKWSQSQRAWHVPDTEHYRTLFQLPQKI
Result :: -0.704

Query :: # repeat for HMKGSPFSQLPKEKKKRILQAAIEVFAQNDYKHASTDEIASRAGISKGLLFYYFHDKKTLYFYLGEYLKR
Result :: 0.173

Query :: // query: HMVGNYYDILGVPETATQDAIKKAFRSLAQQHHPDKNPDDPGAEAMFKKVSEAYQVLSDPDKRQTYDASL
Result :: -0.0611

Query :: Now consider HMTMNYYDILSIKRDATLEEIQKAYKEKSFQFHPDFNKGISDDSMFRIIKEAYETLSDTEKRNQYDASLNK and answer again.
Result :: -0.134

Query :: Item: HMSTNDIFISGDKLVLKNTTGQMDVFDMAGRKVLSSTNNVSEMNVSSLPKGVYVVSASIGGSKMKAKVYK
Result :: 0.0276

Query :: Then this sequence: HMRTTYKTRLETLLAGPMSAGDRRFASSLLDFYNRKNRLTPGRARFVAQLEDRYSAEALAARQG
Result :: -0.00949

Query :: Could you do the same for HMKRREENLRRLALSTAERVKRKGKKEILNPMSPQERRIIHLTLQNNKEVVTHSEGEDPYRRVIISPRN , please?
Result :: 0.311

* * *

# Procedure Details: soluble fraction after stress (log2 fold change); higher = more stays soluble; pooled small domains, quantitative proteomics
# Settings: stress: pH 4
Assay Readout: soluble fraction (log2)
I'd appreciate a reply containing only the number, no unit.

Query :: Request the reported soluble fraction (log2) associated with HMHDITPAVAETFKQLRAERGLSLSQAAQLTGVSKAMLGQIERGQSSPTVSTLWKIATGFNVAFSVFL
Result :: -0.309

Query :: Next up: HMPEVYPFEVAEDDAGKRLDVFLSEEIEEFTRSFIQKLIAGGLASVNRAPARASYRVKPRDLVELQVPE
Result :: -0.158

Query :: And then HMENVQLRNFAIKATEAGIIKLSSDQRTFMWASNQKKLMTVPFDEHPYSAMAQFFKTDEGLAVFKSIEKKL , what is it?
Result :: -0.428

Query :: Would you mind doing HMNSTVKVPNVVGMSVPQAKALLEQNHLLVQGIREVSTDKAPAGIVINQLPYSDAEVKEERHIYLTVSKGK as well?
Result :: 0.0926

Query :: Param item: HMVTIYQRIMLVLEDKQVSVNALSKLVDMSQTTLNTQLKGERTLSANVVAKVLVAYPDVSAEWLMRGVGTM
Result :: -0.426

Query :: Now the same for HMKDITPASEDQLKAITDLMLKVNGEWSDAFFTFISKKFNHQISSPEQLTTFEANTIIDMLRKKAEG
Result :: 0.22

Query :: What do you get for HMKKKSYIVSFATDEDAQRFAREGFEVISLSGRQITVSLKGEMMPLVKALGSYQVVGLETVA ?
Result :: -0.72

Query :: Again, but for HMGGFNATTLQNIEELRRSLSDADQFGRHEVIETIGGSDSRAGKLLKKMLEAGIIEQVKGHGKGRYRFKRT
Result :: 0.0979

Query :: Try this sequence next: HMSKPIYSELLREIRSGDVKELTLIPQRREVLVEYSDGRKATVSILANDQQVLRTAESAGVPLTVK
Result :: 0.116

Query :: Item: HMPIKYTHKGYTINVSRSKMNGTTFVKVVDPKGQVIQQSQDNRIQDVNQLVTTMKQYIDTLKPS
Result :: -0.0336

Query :: Please answer likewise for HMLTGNTAKLFAHLVEVMNPKEFVKINRQTVIVEAGIPRGSVGAAIAKLLETGHLIANASGAYKLT
Result :: 0.0211

Query :: Next entry: HMGMSMNEFLNNRLEQLAVEAVDKSSLGEEIFFYAEPATINLFKDAVDEDEYKVVFPVLKSIIEVEQKLSR
Result :: -1.69

Query :: Also, HMNKEVDLPNFVGMTKENAQAQADKIKIKLEFEEEYSSDVEEGKIISQNPEYKENYKIKEKSTVSLKI please.
Result :: 0.0516

Query :: Can you handle HMNQKTQMTKQILAESLKKLMLHHSFEKITIKDITDAAGFIRPTFYNHFKDKYDLVEWIFTEEI next?
Result :: -0.336

Query :: Moving on to HMEDTSTLSIKHKIKELINQESPQAILSDDKLVELLAAQGIKIARRTIAKYRETMNIPTSAERKRQKRPP
Result :: 0.275

Query :: Another sequence: HMSAPGYRAVYPGMLESERQTAYELLSSSGFDVKINTSSGELEVTTDRYHEARMVMASQNIPK
Result :: -1.18
